This collection of values is drawn from the supplement of paper PMC10567573.

B1: TBX5 (parent)
chain: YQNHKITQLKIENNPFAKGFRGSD

Variants of: B1
Protocol Description: protein stability index of a GFP-peptide fusion (GPS, HEK-293T) (PSI 1-6); higher = more stable;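 also: lentivirally expressed fusions sorted by FACS into six bins by GFP to DsRed ratio, PSI derived from sequencing read proportions per bin multiplied by bin number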
Conditions: c terminus: a fixed tail appended
Listed variants paired with reported protein stability index
Attribute Measured: protein stability index

>>> meas_value("YQNHKITQLMIENNPFAKGFRGSD [K10M]")
2.23
>>> meas_value("YQGHKITQLKIENNPFAKGFRGSD [N3G]")
2.26
>>> meas_value("YQNHKITQLKIYNNPFAKGFRGSD [E12Y]")
1.69
>>> meas_value("YQNHKITQLKIENNPFYKGFRGSD [A17Y]")
2.18
>>> meas_value("YQNHKITQLKIENNPAAKGFRGSD [F16A]")
3.12
>>> meas_value("YQNHKITQLKIENNDFAKGFRGSD [P15D]")
3.34
>>> meas_value("YQNHKITQLKIENNPDAKGFRGSD [F16D]")
3.52
>>> meas_value("YQNHKITQLKIENCPFAKGFRGSD [N14C]")
1.58
>>> meas_value("YQNVKITQLKIENNPFAKGFRGSD [H4V]")
2.68
>>> meas_value("YQNHKIFQLKIENNPFAKGFRGSD [T7F]")
1.61
>>> meas_value("YQNHKITQLKIEENPFAKGFRGSD [N13E]")
2.36
>>> meas_value("YQNHKITQLKIENNPFAKGFCGSD [R21C]")
2.34
>>> meas_value("YQNHKITQLKIENNPFMKGFRGSD [A17M]")
2.5
>>> meas_value("YQNHKITQLKIENNPFAKGFRGID [S23I]")
2.12
>>> meas_value("YQNHKITQLKIENNPFAKGFRYSD [G22Y]")
2.63
>>> meas_value("YQNHKITQLKIENNPFAKGPRGSD [F20P]")
2.88
>>> meas_value("YQNHKITQLEIENNPFAKGFRGSD [K10E]")
3.11
>>> meas_value("YQNHKPTQLKIENNPFAKGFRGSD [I6P]")
2.8
>>> meas_value("YQNIKITQLKIENNPFAKGFRGSD [H4I]")
2.11
>>> meas_value("YQNHKITQLKIENNPFAKGFGGSD [R21G]")
2.46
>>> meas_value("YQNHKITQLKIENNPQAKGFRGSD [F16Q]")
3.44
>>> meas_value("YQNHKITSLKIENNPFAKGFRGSD [Q8S]")
2.13
>>> meas_value("YQNHKITQLKIENNPFAKGFDGSD [R21D]")
2.95
>>> meas_value("YQNHKITQLKIELNPFAKGFRGSD [N13L]")
1.67
>>> meas_value("YQNHKITQVKIENNPFAKGFRGSD [L9V]")
4.05
>>> meas_value("YQNHKGTQLKIENNPFAKGFRGSD [I6G]")
2.3
>>> meas_value("YQNHKITQLKIENNPFAIGFRGSD [K18I]")
2.49
>>> meas_value("YQNHKITQSKIENNPFAKGFRGSD [L9S]")
3.07
>>> meas_value("YDNHKITQLKIENNPFAKGFRGSD [Q2D]")
4.02
>>> meas_value("YQNHKITELKIENNPFAKGFRGSD [Q8E]")
2.97
>>> meas_value("YTNHKITQLKIENNPFAKGFRGSD [Q2T]")
2.4
>>> meas_value("YQNHKITQLKIENNPFAAGFRGSD [K18A]")
2.24
>>> meas_value("YQNHKITQLKIENNPFAKGFRGSF [D24F]")
1.95
>>> meas_value("YQNHKITQLKFENNPFAKGFRGSD [I11F]")
2.25
>>> meas_value("GQNHKITQLKIENNPFAKGFRGSD [Y1G]")
3.64
>>> meas_value("YQNHKIGQLKIENNPFAKGFRGSD [T7G]")
2.12
>>> meas_value("YQNHKITQLKQENNPFAKGFRGSD [I11Q]")
2.58
>>> meas_value("YQNHKITQLKICNNPFAKGFRGSD [E12C]")
1.73
>>> meas_value("YQNHKITQLKIENNPFAKDFRGSD [G19D]")
2.7
>>> meas_value("YQNHKIYQLKIENNPFAKGFRGSD [T7Y]")
2.37
>>> meas_value("YQNHKITQLKIENNPFEKGFRGSD [A17E]")
3.12
>>> meas_value("YQNHKITQLKIENNYFAKGFRGSD [P15Y]")
2.34
>>> meas_value("YQNHKITQLKIENNPFAKAFRGSD [G19A]")
2.75
>>> meas_value("YGNHKITQLKIENNPFAKGFRGSD [Q2G]")
2.54
>>> meas_value("YQNHKITQLKPENNPFAKGFRGSD [I11P]")
2.71
>>> meas_value("YQNHKITQLKIENNPFAQGFRGSD [K18Q]")
2.37
>>> meas_value("YQNHKITQLKWENNPFAKGFRGSD [I11W]")
2.34
>>> meas_value("YQNHKITQLKIVNNPFAKGFRGSD [E12V]")
1.91
>>> meas_value("YQNHKITQLKIEFNPFAKGFRGSD [N13F]")
1.94
>>> meas_value("YQNHKITQLKIENNPFAKGFRSSD [G22S]")
2.57
>>> meas_value("YQNHKFTQLKIENNPFAKGFRGSD [I6F]")
2.45
>>> meas_value("YQNHKITQLKIENNPIAKGFRGSD [F16I]")
3
>>> meas_value("YQNHKITQLKIENNPFAKGKRGSD [F20K]")
3.11
>>> meas_value("YQNHKITQLKDENNPFAKGFRGSD [I11D]")
3.27
>>> meas_value("YQNHKITQLHIENNPFAKGFRGSD [K10H]")
2.2
>>> meas_value("YQNHKITQLKIEDNPFAKGFRGSD [N13D]")
2.48
>>> meas_value("TQNHKITQLKIENNPFAKGFRGSD [Y1T]")
3.65
>>> meas_value("YQNHKITQLKIENNPFAKGFRGMD [S23M]")
2.18
>>> meas_value("YQNHKITQLKIENNCFAKGFRGSD [P15C]")
2.34
>>> meas_value("YQNHKITQLKIENNPFDKGFRGSD [A17D]")
2.73
>>> meas_value("YQNHKITQLLIENNPFAKGFRGSD [K10L]")
2.03
>>> meas_value("YQNHKITQLKIENYPFAKGFRGSD [N14Y]")
1.89
>>> meas_value("YQNHKCTQLKIENNPFAKGFRGSD [I6C]")
2.36
>>> meas_value("YANHKITQLKIENNPFAKGFRGSD [Q2A]")
1.84
>>> meas_value("YQNTKITQLKIENNPFAKGFRGSD [H4T]")
2.44
>>> meas_value("YQNHKITQLKIPNNPFAKGFRGSD [E12P]")
2.63
>>> meas_value("YQNHKITQLKIEQNPFAKGFRGSD [N13Q]")
2.55
>>> meas_value("YQNHKITQLKIENVPFAKGFRGSD [N14V]")
2.27
>>> meas_value("YQNHIITQLKIENNPFAKGFRGSD [K5I]")
1.51
>>> meas_value("LQNHKITQLKIENNPFAKGFRGSD [Y1L]")
3.42
>>> meas_value("YQNHKITDLKIENNPFAKGFRGSD [Q8D]")
2.75
>>> meas_value("YQNHKITQLKIEGNPFAKGFRGSD [N13G]")
1.81
>>> meas_value("YLNHKITQLKIENNPFAKGFRGSD [Q2L]")
2.84
>>> meas_value("YQNHKITQLKIENNPFAKGFRGLD [S23L]")
2.11
>>> meas_value("YQNHKITLLKIENNPFAKGFRGSD [Q8L]")
1.41
>>> meas_value("YQNHKITQLKMENNPFAKGFRGSD [I11M]")
2.64
>>> meas_value("YQNHKITQLKIENNPFAKGGRGSD [F20G]")
2.98
>>> meas_value("YQNHKITQLKIWNNPFAKGFRGSD [E12W]")
1.49
>>> meas_value("YQNHKITQHKIENNPFAKGFRGSD [L9H]")
2.38
>>> meas_value("YQNHKITQLKIENNPFAKYFRGSD [G19Y]")
2.36
>>> meas_value("YQNHKITQLKIENNPHAKGFRGSD [F16H]")
3.54
>>> meas_value("YQNHKITQLGIENNPFAKGFRGSD [K10G]")
1.85
